Target: TRAILR2 receptor on the surface of human tumor cells (human, UniProt O14763 56-440)
Assay: cell-based or functional assay
Catalogue of binders with associated eff. (efficiency %), cytotoxic effect on Jurkat E6-1 cells
API: value field is a number in %; no unit string.

Sample answers from the record:
Zapadcine-1b (antibody, V domains shown, MMAD coupled through linker Mc-Vc-PAB by thiol conventional coupling, cleavable; positions not given) VH: QVQLVQSGSELKKPGASVKVSCKASGYTFTDFSMNWVRQAPGQGLEWMGWINTETGEPTYADDFKGRFVFSLDTSVSTAYLQISSLKAEDTAVYYCARIDYWGQGTTVTVSS VL: DIVMTQSPLSLPVTPGEPASISCRSSQSLVHSNGNTYLHWYLQKPGQSPQLLIYKVSNRFSGVPDRFSGSGSGTDFTLKISRVEAEDVGVYYCFQSTHVPHTFGQGTKLEIKR ... 98.6
Zapadcine-1a (antibody, V domains shown, MMAD coupled through linker Py-Vc-PAB by thiol (disulfide) bridge coupling, cleavable; positions not given) VH: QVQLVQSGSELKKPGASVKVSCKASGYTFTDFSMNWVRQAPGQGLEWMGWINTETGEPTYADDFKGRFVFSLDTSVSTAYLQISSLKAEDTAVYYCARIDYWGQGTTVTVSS VL: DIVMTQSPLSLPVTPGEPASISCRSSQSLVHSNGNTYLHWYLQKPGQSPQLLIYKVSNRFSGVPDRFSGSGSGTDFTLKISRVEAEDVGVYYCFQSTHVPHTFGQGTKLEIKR ... 97.3
Zapadcine-1c (antibody, V domains shown, MMAD coupled through linker Py-MAA by thiol bridge coupling, non-cleavable; positions not given) VH: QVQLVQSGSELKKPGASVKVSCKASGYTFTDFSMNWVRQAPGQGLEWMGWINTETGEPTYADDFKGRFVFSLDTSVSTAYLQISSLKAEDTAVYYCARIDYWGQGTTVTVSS VL: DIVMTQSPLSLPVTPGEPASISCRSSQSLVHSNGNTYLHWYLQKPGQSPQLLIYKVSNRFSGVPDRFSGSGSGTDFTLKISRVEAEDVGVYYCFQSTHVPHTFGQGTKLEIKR ... 98.1

Quick one: eff. (efficiency %), cytotoxic effect on Jurkat E6-1 cells for Zaptuzumab (antibody, V domains shown) VH: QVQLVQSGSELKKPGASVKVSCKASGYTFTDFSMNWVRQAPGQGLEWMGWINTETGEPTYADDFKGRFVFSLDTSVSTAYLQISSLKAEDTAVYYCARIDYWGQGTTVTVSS VL: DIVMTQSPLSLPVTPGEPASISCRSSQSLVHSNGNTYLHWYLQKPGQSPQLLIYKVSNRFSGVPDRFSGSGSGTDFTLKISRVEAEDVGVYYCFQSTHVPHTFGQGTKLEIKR ?
90.7

What do we get for Zapadcine-1d (antibody, V domains shown, MMAF coupled through linker Mc-Vc-PAB by thiol conventional coupling, cleavable; positions not given) VH: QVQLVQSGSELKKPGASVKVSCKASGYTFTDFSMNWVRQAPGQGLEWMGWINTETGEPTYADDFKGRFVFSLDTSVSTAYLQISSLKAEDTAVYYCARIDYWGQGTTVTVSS VL: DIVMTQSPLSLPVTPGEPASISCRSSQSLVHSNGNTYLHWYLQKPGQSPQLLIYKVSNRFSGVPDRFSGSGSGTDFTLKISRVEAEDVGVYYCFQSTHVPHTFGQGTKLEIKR ?
84.9
